These data points were gathered from PubChem BioAssay AID504339.

- assay target: Lysine-specific demethylase 4A (Homo sapiens)
- protocol notes: qHTS Assay for Inhibitors of JMJD2A-Tudor Domain; further: nearly all actives have a fitted effect of over 50% in size
- stated conditions: AlphaScreen JMJD2A-Tudor / H3K4me3 peptide binding; series mostly up to 114 µM
The campaign covered roughly 390,000 compounds. About 17,000 (4.4%) were called active. Roughly 8% stayed inconclusive and do not appear here. The call rests on the fitted dose curve; in most records, active means well fitted inhibition curve with a large enough effect; inconclusive means small, poorly fitted or top-dose-only effect; inactive means no such curve, though single readings can be large or run the other way. Shown is part of a subset that was picked to be rich in actives.
Parameter call: string, one of Yes (active), No (inactive)

>>> print(df.to_string())
                                   compound                              assay_target  category
0  Cc1ccccc1CNC(=O)c1cccc(NC(=O)c2nsc3ccccc23)c1  Lysine-specific demethylase 4A (Homo sapiens)        No
1  CCOC(=O)N1CCN(C(=O)C2CCN(S(=O)(=O)c3cc(Cl)ccc3OCC)CC2)CC1  Lysine-specific demethylase 4A (Homo sapiens)        No
2  COc1ccc(-n2nc(C(=O)NCCc3ccc(Cl)cc3)c3c4ccccc4n(C)c3c2=O)cc1Cl  Lysine-specific demethylase 4A (Homo sapiens)        No
3  COc1ccccc1C(=O)NCCn1cc(SCc2ccccc2Cl)c2ccccc21  Lysine-specific demethylase 4A (Homo sapiens)        No
4  CC(=O)c1ccc(NC(=O)C2CCN(S(=O)(=O)c3c(C)noc3/C=C/c3ccc(C)cc3)CC2)cc1  Lysine-specific demethylase 4A (Homo sapiens)        No
5  O=C(NCCc1ccccc1)c1cnc2sc(N3CCCC3)nn2c1=O  Lysine-specific demethylase 4A (Homo sapiens)        No

Query: Given Cn1c(=O)cc(OCC(=O)N2CCN(c3ccccc3)CC2)c2ccccc21 , state the outcome it received in this test.
Response: No

Query: Given CN1C(=O)c2ccccc2Sc2ccc(NC(=O)Cc3ccc(Cl)cc3)cc21 , state the outcome it received in this test.
Response: No

Query: Given O=C(c1ccc(S(=O)(=O)NCc2ccco2)cc1)N1CCN(c2ccccc2)CC1 , state the outcome it received in this test.
Response: No

* * *

- assay target: Lysine-specific demethylase 4A (Homo sapiens) (UniProt O75164)
- Sequence (O75164 whole entry, looked up, the tested form may be a part): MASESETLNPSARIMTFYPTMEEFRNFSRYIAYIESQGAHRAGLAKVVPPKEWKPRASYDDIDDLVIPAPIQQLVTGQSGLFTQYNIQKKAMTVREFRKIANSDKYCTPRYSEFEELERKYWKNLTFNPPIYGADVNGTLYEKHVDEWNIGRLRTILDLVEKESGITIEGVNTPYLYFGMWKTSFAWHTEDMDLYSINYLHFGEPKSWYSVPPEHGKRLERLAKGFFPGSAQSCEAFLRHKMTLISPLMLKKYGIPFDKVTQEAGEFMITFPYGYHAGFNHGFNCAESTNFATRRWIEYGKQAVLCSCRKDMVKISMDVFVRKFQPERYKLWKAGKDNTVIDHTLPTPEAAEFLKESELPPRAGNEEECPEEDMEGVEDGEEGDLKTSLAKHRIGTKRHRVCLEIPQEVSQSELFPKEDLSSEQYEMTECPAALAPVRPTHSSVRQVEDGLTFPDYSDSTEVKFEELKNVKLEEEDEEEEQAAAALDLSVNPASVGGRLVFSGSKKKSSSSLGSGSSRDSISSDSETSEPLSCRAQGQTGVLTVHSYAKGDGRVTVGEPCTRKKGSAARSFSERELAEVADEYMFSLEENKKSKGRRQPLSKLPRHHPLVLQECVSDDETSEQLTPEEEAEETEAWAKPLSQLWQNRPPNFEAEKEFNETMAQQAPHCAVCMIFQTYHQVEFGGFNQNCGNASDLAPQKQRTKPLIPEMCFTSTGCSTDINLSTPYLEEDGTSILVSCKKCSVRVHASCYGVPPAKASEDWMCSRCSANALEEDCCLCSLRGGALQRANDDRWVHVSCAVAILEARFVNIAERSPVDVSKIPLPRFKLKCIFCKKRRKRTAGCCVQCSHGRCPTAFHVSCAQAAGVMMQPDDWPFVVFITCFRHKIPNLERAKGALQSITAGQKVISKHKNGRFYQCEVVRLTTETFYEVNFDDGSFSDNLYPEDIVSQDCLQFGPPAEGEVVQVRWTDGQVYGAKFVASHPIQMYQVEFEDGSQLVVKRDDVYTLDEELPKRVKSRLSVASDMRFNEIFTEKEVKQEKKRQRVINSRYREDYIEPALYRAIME
- protocol notes: qHTS Assay for Inhibitors of JMJD2A-Tudor Domain; further: nearly all actives have a fitted effect of over 50% in size
- stated conditions: AlphaScreen JMJD2A-Tudor / H3K4me3 peptide binding; series mostly up to 114 µM
- Text: JMJD2A is a jumonji-domain-containing lysine demethylase that uses Fe(II) together with 2-OG to effect oxidative demethylation of histones. Methylation is one of many […] modification that affect epigenetic transcription. […] A quantitative high throughput AlphaScreen has been developed to identify small molecule inhibitors based on a protocol published by NCGC and SGC [4]. […] [2] Yasgar, et al. Compound Management for Quantitative High-Throughput Screening. […]
In all, about 390,000 compounds went through this assay and about 17,000 (4.4%) were called active. Not shown: some 8% with an inconclusive outcome. The call rests on the fitted dose curve; in most records, active means well fitted inhibition curve with a large enough effect; inconclusive means small, poorly fitted or top-dose-only effect; inactive means no such curve, though single readings can be large or run the other way. Shown is part of a subset that was picked to be rich in actives.
Parameter call: string, one of active, inactive

Example entries and their recorded answers appear below.
>>> df
                                   molecule  category
0  CC1=C(C(N)=O)C(c2ccc3c(c2)OCO3)n2nc(-c3cccc(C)c3)nc2N1 (stereo not given)  inactive
1  COc1cc2[nH]c(=O)n(Cc3ccc(C(=O)NCc4ccc(C)cc4)cc3)c(=O)c2cc1OC  inactive

Query: Given CC1CN(C(=O)N2CCC(C(=O)NCc3cccs3)CC2)c2ccccc2O1 (stereo not given) , state the outcome it received in this test.
Response: inactive

Query: Given Cc1cccc(NC(=O)N2CCC(CN3CCc4ccccc4C3)CC2)c1C , state the outcome it received in this test.
Response: inactive

Query: Given Cc1ccc(N2CC(C(=O)Nc3ccc(N(C)C)cc3)CC2=O)cc1Cl (stereo not given) , state the outcome it received in this test.
Response: inactive

Query: Given O=C(CNC(=O)c1ccccc1)OC(C(=O)Nc1cc([N+](=O)[O-])ccc1F)c1ccccc1 (stereo not given) , state the outcome it received in this test.
Response: inactive

Query: Given Cc1cccc(C)c1NC(=O)CSc1nnc(-c2ccccc2)n1Cc1ccc2c(c1)OCO2 , state the outcome it received in this test.
Response: inactive
